Reference source: PubChem BioAssay (Tox21)

- Test system: thyroid hormone receptor (rat, GH3 cells)
- methodDescription: qHTS assay to identify small molecule agonists of the thyroid receptor (TR) signaling pathway (AID 743066)
- condition: GH3.TRE-Luc cells, TR agonist luciferase, 24 h; series mostly up to 83.9 µM
Inconclusive results are not listed. Active and inactive are the calls of the source. Calls come from the whole dose curve.
Result category, one only: active, inactive

Past entries and their recorded results:
{"columns": ["molecule", "target", "assignedClass"],
 "data": [
  ["CN(C)c1ccc(N=O)cc1", "thyroid hormone receptor (rat, GH3 cells)", "active"],
  ["C[C@H]1O[C@H](OC2[C@@H](O)[C@@H](O)C(O)[C@H](O)[C@H]2O)[C@@H](N)C[C@@H]1N=C(N)C(=O)O (stereo not given in full)", "thyroid hormone receptor (rat, GH3 cells)", "inactive"],
  ["CCOC(=O)c1cncn1C(C)c1ccccc1 (stereo not given)", "thyroid hormone receptor (rat, GH3 cells)", "inactive"],
  ["O=C(Cc1ccccc1)c1ccccc1", "thyroid hormone receptor (rat, GH3 cells)", "inactive"],
  ["C1CCNCC1", "thyroid hormone receptor (rat, GH3 cells)", "inactive"]
]}

INPUT: Please let me know the test result on file for Cc1ccccc1 .
OUTPUT: inactive

INPUT: Please let me know the test result on file for O=C(O)c1cc(I)cc(I)c1I .
OUTPUT: inactive

INPUT: Please let me know the test result on file for CCOC(=O)C1OC1(C)c1ccccc1 (stereo not given) .
OUTPUT: inactive
